assay.name: chemical genetic growth profiling, strain panel (AID 1159580);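 further: tested at 20 µM; growth read once vehicle control cultures reached saturation at 30 °C; 1 = growth at the plate median or of vehicle wells; lower values mean less growth of the strain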
settings: S. cerevisiae deletion strains, growth OD, locus YMR231W, strain pep5, active compounds read low
The campaign covered roughly 5,500 compounds. About 2,000 (36%) were called active. Inconclusive results (about 18%) are left out. The list shows a part of the results.
Listed compounds paired with reported normalized growth
Please give only the number in your answer, with no unit.

These recorded examples may help you get a feel for the data.
compound	normalized growth
CC(CCC(=O)O)[C@H]1CCC2C3CC[C@@H]4C[C@H](O)CC[C@]4(C)C3C[C@H](O)[C@@]21C (some centres undefined)	0.99
C[C@@H]1O[C@@H](O[C@H]2C[C@@H](O)[C@]3(CO)C4C(CC[C@]3(O)C2)[C@@]2(O)CC[C@H](C3=CC(=O)OC3)[C@@]2(C)C[C@H]4O)[C@H](O)[C@H](O)[C@H]1O (some centres undefined)	1.02
CCCCCC1C(=O)CCC1CC(=O)O (centres undefined)	0.983
CC(CCC(=O)O)[C@H]1CCC2C3CC[C@@H]4CCCC[C@]4(C)C3CC[C@@]21C (some centres undefined)	0.998
CC[C@H](CCC(C)[C@H]1CCC2C3CCC4C[C@@H](O)CC[C@]4(C)C3CC[C@@]21C)C(C)C (some centres undefined)	0.975

Moving on to another compound below.
Quick one: normalized growth of CO[C@]12C[C@@H](COC(=O)c3cncc(Br)c3)CN(C)[C@@H]1Cc1cn(C)c3cccc2c13 ?
0.997

====

assay.name: chemical genetic growth profiling, strain panel (AID 1159580);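 further: tested at 20 µM; growth read once vehicle control cultures reached saturation at 30 °C; 1 = growth at the plate median or of vehicle wells; lower values mean less growth of the strain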
settings: S. cerevisiae deletion strains, growth OD, locus YPL055C, strain LGE1, active compounds read low
Among all 5,500 compounds or so, about 2,000 (36%) were called active. Not shown: some 18% with an inconclusive outcome. This is one part of the list. Where a SMILES comes first, the peptide text is derived from it.
Could you please mark yes (1) for values of normalized growth below 1 and no (0) for values at or above it?

Quick check: normalized growth of Cc1ccc(/C(N)=N\O)cc1F under 1?
no (0)

Quick check: normalized growth of COc1ccc(N=Cc2ccccc2O)cc1 under 1?
yes (1)

Quick check: normalized growth of C#CCN(C)CCCOc1ccc(Cl)cc1Cl under 1?
yes (1)

Quick check: normalized growth of O=S(=O)(Nc1ccc(Oc2ccc(Cl)cc2)cc1)c1ccccc1 under 1?
yes (1)

Quick check: normalized growth of Cc1nc2sccn2c(=O)c1CCN1CCC(=C(c2ccc(F)cc2)c2ccc(F)cc2)CC1 under 1?
yes (1)

Quick check: normalized growth of COC(=O)CCC(=O)O[C@H]1CCC2(C)C(CCC3C2C(=O)[C@@H](O)C2(C)C3CC3OC4(CCC(C)CO4)[C@@H](C)C32)C1 (stereo partly drawn) under 1?
no (0)

Quick check: normalized growth of NCCCCC(N)C(=O)NC(Cc1ccc(O)cc1)C(=O)NC(CCCCN)C(=O)O (stereo not drawn) (H-Lys-Tyr-Lys-OH; configuration not given here) under 1?
no (0)

Quick check: normalized growth of CC(=O)N=c1sc(S(N)(=O)=O)nn1C under 1?
yes (1)

====

assay.name: chemical genetic growth profiling, strain panel (AID 1159580);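 further: tested at 20 µM; growth read once vehicle control cultures reached saturation at 30 °C; 1 = growth at the plate median or of vehicle wells; lower values mean less growth of the strain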
settings: S. cerevisiae deletion strains, growth OD, locus YJL115W, strain asf1, active compounds read low
The whole screen tested about 5,500 compounds, of which about 2,000 (36%) were called active. Inconclusive results (about 18%) are left out. The list shows a part of the results.
Listed compounds paired with reported normalized growth
Please give only the number in your answer, with no unit.

These recorded examples may help you get a feel for the data.
compound	normalized growth
Cc1cc(=O)oc2c(O)c(O)ccc12	0.975
CC12CC3CC(C)(C1)CC(N)(C3)C2	0.976
C[C@H](CCC(=O)O)[C@H]1CCC2C3C(CC[C@@]21C)[C@@]1(C)CC[C@@H](O)C[C@H]1C[C@H]3O (stereo partly drawn)	1.03
CC(CCC(=O)O)[C@H]1CCC2C3C[C@H](O)[C@@H]4C[C@H](O)CC[C@]4(C)C3CC[C@@]21C (stereo partly drawn)	0.977
O=c1cc(-c2ccccc2)oc2c(O)c(O)ccc12	0.971
CC(CCC(=O)O)[C@H]1CCC2C3CC[C@@H]4C[C@H](O)CC[C@]4(C)C3C[C@H](O)[C@@]21C (stereo partly drawn)	0.986
C[C@@H]1O[C@@H](O[C@H]2C[C@@H](O)[C@]3(CO)C4C(CC[C@]3(O)C2)[C@@]2(O)CC[C@H](C3=CC(=O)OC3)[C@@]2(C)C[C@H]4O)[C@H](O)[C@H](O)[C@H]1O (stereo partly drawn)	1.03

Moving on to another compound below.
Quick one: normalized growth of COC(=O)CCC(C)[C@H]1CCC2C3C(C[C@H](O)[C@@]21C)[C@@]1(C)CC[C@@H](O)C[C@H]1C[C@H]3O (stereo partly drawn) ?
1.01
